Reported IC50 is given for each of the following compounds.
Experiment: Inhibition of Baker's yeast alpha-glucosidase using pNGP as substrate after 30 mins by spectrophotometric analysis
Parameters: species or system Saccharomyces cerevisiae
RECORDED_METRIC: IC50 (µM)

COMPOUND	UNIT_ABBREV	SIGN_QUALIFIER	MEASURED_RESULT
Cc1c2c(cc3c1N(C)C(=O)C3=O)-c1ccccc1OC2CC(=O)O (centres undefined)	µM	>	300
O=C(CC1Oc2ccccc2-c2ccc3c(c21)C(=O)C(=O)N3Cc1ccc(C(F)(F)F)cc1)Nc1ccc(O)cc1 (centres undefined)	µM	=	6.2
Nc1ccc(-c2ccc(NC(=O)CC3Oc4ccccc4-c4ccc5c(c43)C(=O)C(=O)N5Cc3ccc(C(F)(F)F)cc3)cc2)cc1 (centres undefined)	µM	=	0.7
COc1ccc(NC(=O)CC2Oc3ccccc3-c3ccc4c(c32)C(=O)C(=O)N4Cc2ccc(C(F)(F)F)cc2)cc1 (centres undefined)	µM	=	5.1
O=C(O)CC1Nc2ccccc2-c2ccc3c(c21)C(=O)C(=O)N3Cc1ccc(C(F)(F)F)cc1 (centres undefined)	µM	=	80
CN1C(=O)C(=O)c2c1ccc1c2C(CC(=O)Nc2ccccc2)Nc2ccccc2-1 (centres undefined)	µM	=	226
O=C(CC1Nc2ccccc2-c2ccc3c(c21)C(=O)C(=O)N3Cc1ccc(C(F)(F)F)cc1)Nc1ccccc1 (centres undefined)	µM	=	4.6
COC(=O)CC1Nc2ccccc2-c2ccc3c(c21)C(=O)C(=O)N3C (centres undefined)	µM	=	287
COC(=O)CC1Oc2ccccc2-c2ccc3c(c21)C(=O)C(=O)N3Cc1ccc(OC)cc1 (centres undefined)	µM	=	32.3
CN1C(=O)C(=O)c2c1ccc1c2C(CC(=O)O)Nc2ccccc2-1 (centres undefined)	µM	=	187
O=C(O)CC1Oc2ccccc2-c2ccc3c(c21)/C(=N/O)C(=O)N3Cc1ccc(C(F)(F)F)cc1 (centres undefined)	µM	=	47.7
COC(=O)CC1Oc2ccccc2-c2cc3c(cc21)N(C)C(=O)C3=O (centres undefined)	µM	=	180
O=C1C(=O)N(Cc2ccc(C(F)(F)F)cc2)c2ccc3c(c21)C(CC(=O)N1CCCCC1)Oc1ccccc1-3 (centres undefined)	µM	=	4.4
Nc1ccc(-c2ccc(NC(=O)CC3Nc4ccccc4-c4ccc5c(c43)C(=O)C(=O)N5Cc3ccc(C(F)(F)F)cc3)cc2)cc1 (centres undefined)	µM	=	1.9
CN1C(=O)C(=O)c2c1ccc1c2C(CC(=O)Nc2ccc(-c3ccc(N)cc3)cc2)Nc2ccccc2-1 (centres undefined)	µM	=	8.4
NC(=O)CC1Oc2ccccc2-c2ccc3c(c21)C(=O)C(=O)N3Cc1ccc(C(F)(F)F)cc1 (centres undefined)	µM	=	43.9
O=C(O)CC1Oc2ccccc2-c2ccc3c(c21)C(=O)C(=O)N3Cc1ccc(C(F)(F)F)cc1 (centres undefined)	µM	=	4.8
Cc1c2c(cc3c1N(C)C(=O)C3=O)-c1ccccc1OC2CC(=O)Nc1ccccc1 (centres undefined)	µM	=	36.1
COC(=O)CC1Oc2ccccc2-c2ccc3c(c21)C(=O)C(=O)N3Cc1ccccc1 (centres undefined)	µM	=	12.1
O=C1C(=O)N(Cc2ccc(C(F)(F)F)cc2)c2ccc3c(c21)C(CC(=O)N1CCOCC1)Oc1ccccc1-3 (centres undefined)	µM	>	300
O=C1C(=O)N(Cc2ccc(C(F)(F)F)cc2)c2ccc3c(c21)C(CC(=O)N1CCNCC1)Oc1ccccc1-3 (centres undefined)	µM	=	32.8
O=C(CC1Oc2ccccc2-c2ccc3c(c21)C(=O)C(=O)N3Cc1ccc(C(F)(F)F)cc1)Nc1ccccc1 (centres undefined)	µM	=	4
O=C(O)CC1Oc2ccccc2-c2ccc3c(c21)C(F)(F)C(=O)N3Cc1ccc(C(F)(F)F)cc1 (centres undefined)	µM	=	67
COC(=O)CC1Oc2ccccc2-c2ccc3c(c21)C(=O)C(=O)N3C (centres undefined)	µM	=	105
CNC(=O)CC1Oc2ccccc2-c2ccc3c(c21)C(=O)C(=O)N3Cc1ccc(C(F)(F)F)cc1 (centres undefined)	µM	=	11.8
O=C(O)CC1Oc2ccccc2-c2ccc3c(c21)C(=O)C(=O)N3Cc1ccccc1 (centres undefined)	µM	=	16
CNC(=O)CC1Oc2ccccc2-c2cc3c(c(C)c21)N(C)C(=O)C3=O (centres undefined)	µM	>	300
COC(=O)CC1Nc2ccccc2-c2ccc3c(c21)C(=O)C(=O)N3Cc1ccc(C(F)(F)F)cc1 (centres undefined)	µM	=	37.2
COC(=O)CC1Oc2ccccc2-c2cc3c(c(C)c21)N(C)C(=O)C3=O (centres undefined)	µM	=	18.5
